- assay.method.text: gradient 5% acetonitrile 3 min, to 50% in 2 min, to 85% in 15 min, held 3 min, 100 µL/min
- measurement.parameters: column: Zorbax Extend-C18 2.1 x 50 mm; eluents: water / acetonitrile, 0.1% formic acid
parameter: RP-LC retention time (s)

{"molecule": "O=C(Nc1ccc(F)c(Cl)c1)C1CCCN(c2ccnc(-c3ccc(F)cc3)n2)C1 (stereo not drawn)", "unit.label": "s", "recorded.value": 780}

(P) O=C(NCc1ccccc1C(F)(F)F)C1CCN(c2cnc3nccnc3c2)CC1
(Q) O=S(=O)(c1ccc(F)c(Cl)c1)N1CCc2nc(-c3ccccc3)ncc2C1
Exam item: Look at P and Q . Which one has the lower recorded RP-LC retention time number? Indicate your choice by writing its label.
Marked response: P
(P: 747 s, Q: 1130 s)

(A) Cc1ccc2snc(C(=O)NC(C)C)c2c1
(B) COc1ccc(NC(=O)Cn2ccnc2-c2ccnc(N3CCCC3)c2)cc1OC
Exam item: Consider A and B . Which of these has its RP-LC retention time at a higher number? Indicate your choice by writing its label.
Marked response: A

(I) CC(C(=O)NCCN(C)Cc1ccccc1)n1c(=O)c(C(F)(F)F)nc2ccccc21 (stereo not drawn)
(II) Cc1ccc(Sc2nccnc2N2CCCC(C(=O)NC(C)c3ccccc3)C2)cc1 (stereo not drawn)
Exam item: Consider I and II . Which of these has its RP-LC retention time at a higher number? Indicate your choice by writing its label.
Marked response: II
(II: 1140 s, I: 735 s)

(A) O=C(NC1CC1)c1ccc(-n2cccn2)nc1
(B) CN1C(=O)c2ccccc2Oc2ccc(C(=O)NC3CCCCCC3)cc21
Exam item: Consider A and B . Which of these has its RP-LC retention time at a higher number? Indicate your choice by writing its label.
Marked response: B

----------
- assay.method.text: gradient 5% acetonitrile 3 min, to 50% in 2 min, to 85% in 15 min, held 3 min, 100 µL/min
- measurement.parameters: column: Zorbax Extend-C18 2.1 x 50 mm; eluents: water / acetonitrile, 0.1% formic acid
parameter: RP-LC retention time (s)

{"chemical.string": "O=C(Nc1nnc(-c2ccc(Cl)s2)o1)c1ccc(S(=O)(=O)N2CCCC2)cc1", "unit.label": "s", "recorded.value": 814}
{"chemical.string": "O=C(CCS(=O)(=O)c1ccccc1)N1CCCc2ccccc21", "unit.label": "s", "recorded.value": 779}
{"chemical.string": "COc1ccccc1NC(=O)Cn1nc(N2CCOCC2)c2ccccc2c1=O", "unit.label": "s", "recorded.value": 819}

----------
- assay.method.text: gradient 5% acetonitrile 3 min, to 50% in 2 min, to 85% in 15 min, held 3 min, 100 µL/min
- measurement.parameters: column: Zorbax Extend-C18 2.1 x 50 mm; eluents: water / acetonitrile, 0.1% formic acid
parameter: RP-LC retention time (s)

{"molecule": "Cc1ccn2cc(-c3ccc(NS(=O)(=O)c4ccc5ccccc5c4)cc3)nc2n1", "RP-LC retention time [s]": 690}
{"molecule": "CCCN1CCN(C(=O)C(C)C2CCN(S(=O)(=O)c3ccc(Br)s3)CC2)CC1 (stereo not drawn)", "RP-LC retention time [s]": 689}
{"molecule": "COc1ccccc1NC(=O)N1CCCC(Cn2c(C3CC3)nc3cccnc32)C1 (stereo not drawn)", "RP-LC retention time [s]": 681}
